Listed here: items and their measured Ki.
tested_system: rGmolOBP7 (recombinant GmolOBP7) (Grapholita molesta)
Sequence (A0A2R4SBC1 entry or part of it): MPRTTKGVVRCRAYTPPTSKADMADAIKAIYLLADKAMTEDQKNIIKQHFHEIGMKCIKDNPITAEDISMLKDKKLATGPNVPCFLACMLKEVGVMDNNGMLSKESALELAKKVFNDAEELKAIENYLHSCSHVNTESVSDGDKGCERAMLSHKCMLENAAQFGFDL
assay_text: biochemical
Type: binding
assay_setup: calculated from IC50 by Ki = [IC50]/(1+[1-NPN]/K1-NPN); read-out: Ki

Reference set, count: 5
compound: CCCCC/C=C\C=C\C(=O)OCC [Pear ester, Ethyl (E, Z)-2,4-decadienate]
value_observed: 2.52 µM
--
compound: C=C1[C@@H]2CC[C@@H](C2)C1(C)C [(-)-Camphene]
value_observed: > 35 µM
--
compound: CCCCCCCCCCCCCC(=O)OC [Methyl myristate]
value_observed: > 35 µM
--
compound: CCC/C=C\CCCCCCCO [(Z)-8-dodecenyl alcohol]
value_observed: > 35 µM
--
compound: CCCCCC(=O)OCCCC [Butyl hexanoate]
value_observed: 17 µM

Q. Hi! What's the reported Ki for `CCC(C)=CCCC(C)=CC#N` on rGmolOBP7 (recombinant GmolOBP7) (Grapholita molesta)?
A. > 35 µM

Q. `CCCCCCCCCCCCCC=O` ?
A. > 35 µM

Q. Also, CCCCCCCCCCCCCCCC(=O)OC [Methyl palmitate] please.
A. > 35 µM
